- Test system: Escherichia coli
- PROCEDURE_DETAILS: Antimicrobial activity against Escherichia coli DH10B harboring plasmid pBC SK(+) carrying wild type beta-lactamase KPC-2 by agar dilution method
- Format: functional
- MEASUREMENT_PARAMETERS: K-12 DH10B
Give measured MIC for each item. Keep answers brief.
All answers are understood in µg/mL, so give the number only.

Challenge: Quick check: MIC of C[C@@H](O)[C@H]1C(=O)N2C(C(=O)O)=C(SCCNC=N)C[C@H]12 [IMIPENEM ANHYDROUS] ?
Response given: 0.5

Challenge: So what does the record say about MIC for CC1(C)S[C@@H]2[C@H](NC(=O)[C@H](N)c3ccccc3)C(=O)N2[C@H]1C(=O)O [AMPICILLIN] ?
Response given: 256

Challenge: Given CC(=O)OCC1=C(C(=O)O)N2C(=O)[C@@H](NC(=O)Cc3cccs3)[C@H]2SC1 [CEPHALOTHIN] , state its recorded MIC.
Response given: 256

Challenge: Recorded MIC of `C[C@@H](O)[C@H]1C(=O)N2C(C(=O)O)=C(S[C@@H]3CN[C@H](C(=O)Nc4cccc(C(=O)O)c4)C3)[C@H](C)[C@H]12` , please.
Response given: 0.25

Challenge: // returns reported MIC for input CO/N=C(\C(=O)N[C@@H]1C(=O)N2C(C(=O)O)=C(COC(C)=O)CS[C@H]12)c1csc(N)n1 [CEFOTAXIME]
Response given: 2

====

- System: Klebsiella pneumoniae
- PROCEDURE_DETAILS: Ratio of Kcat/Km for Klebsiella pneumoniae 1534 beta-lactamase KPC-2 T237S mutant by spectrophotometric analysis
Provide the recorded kcat/Km for the entries that follow.
Report the figure in M⁻¹ s⁻¹ without appending any unit label.

Challenge: Given the entry CO/N=C(\C(=O)N[C@@H]1C(=O)N2C(C(=O)O)=C(COC(C)=O)CS[C@H]12)c1csc(N)n1 [CEFOTAXIME] , report its measured kcat/Km.
Response given: 260000

Challenge: Form field: reported kcat/Km of `O=C(Cc1cccs1)N[C@@H]1C(=O)N2C(C(=O)O)=C(/C=C/c3ccc([N+](=O)[O-])cc3[N+](=O)[O-])CS[C@H]12`
Response given: 1e+07

Challenge: What does the data say about its kcat/Km? Entry: CCN1CCN(C(=O)N[C@@H](C(=O)N[C@@H]2C(=O)N3[C@@H]2SC(C)(C)[C@@H]3C(=O)O)c2ccccc2)C(=O)C1=O [PIPERACILLIN]
Response given: 7e+06

Challenge: What value of measured kcat/Km is listed for C[C@@H](O)[C@H]1C(=O)N2C(C(=O)O)=C(SCCNC=N)C[C@H]12 [IMIPENEM ANHYDROUS] ?
Response given: 1e+06

Challenge: Recorded kcat/Km for CC(=O)OCC1=C(C(=O)O)N2C(=O)[C@@H](NC(=O)Cc3cccs3)[C@H]2SC1 [CEPHALOTHIN] , please?
Response given: 3.6e+06

====

- Tested on: Klebsiella pneumoniae
- PROCEDURE_DETAILS: Ratio of Kcat/Km for Klebsiella pneumoniae 1534 beta-lactamase KPC-2 T237A mutant by spectrophotometric analysis
READOUT_NAME: kcat/Km (M⁻¹ s⁻¹)
Only the number, expressed in M⁻¹ s⁻¹, is required.

Challenge: Entry under review: C[C@@H](O)[C@H]1C(=O)N2C(C(=O)O)=C(SCCNC=N)C[C@H]12 [IMIPENEM ANHYDROUS] . Reported kcat/Km?
Response given: 220000

Challenge: Value lookup for kcat/Km; key = `O=C(Cc1cccs1)N[C@@H]1C(=O)N2C(C(=O)O)=C(/C=C/c3ccc([N+](=O)[O-])cc3[N+](=O)[O-])CS[C@H]12`
Response given: 1.3e+07

Challenge: Return reported kcat/Km; argument: `CC(=O)OCC1=C(C(=O)O)N2C(=O)[C@@H](NC(=O)Cc3cccs3)[C@H]2SC1`
Response given: 900000

Challenge: State the recorded kcat/Km for this entry: `CCN1CCN(C(=O)N[C@@H](C(=O)N[C@@H]2C(=O)N3[C@@H]2SC(C)(C)[C@@H]3C(=O)O)c2ccccc2)C(=O)C1=O`
Response given: 3.5e+06
